- measurement target: UniProt:P13569
- Sequence (P13569 with tags, fused parts or gaps DEL508-508): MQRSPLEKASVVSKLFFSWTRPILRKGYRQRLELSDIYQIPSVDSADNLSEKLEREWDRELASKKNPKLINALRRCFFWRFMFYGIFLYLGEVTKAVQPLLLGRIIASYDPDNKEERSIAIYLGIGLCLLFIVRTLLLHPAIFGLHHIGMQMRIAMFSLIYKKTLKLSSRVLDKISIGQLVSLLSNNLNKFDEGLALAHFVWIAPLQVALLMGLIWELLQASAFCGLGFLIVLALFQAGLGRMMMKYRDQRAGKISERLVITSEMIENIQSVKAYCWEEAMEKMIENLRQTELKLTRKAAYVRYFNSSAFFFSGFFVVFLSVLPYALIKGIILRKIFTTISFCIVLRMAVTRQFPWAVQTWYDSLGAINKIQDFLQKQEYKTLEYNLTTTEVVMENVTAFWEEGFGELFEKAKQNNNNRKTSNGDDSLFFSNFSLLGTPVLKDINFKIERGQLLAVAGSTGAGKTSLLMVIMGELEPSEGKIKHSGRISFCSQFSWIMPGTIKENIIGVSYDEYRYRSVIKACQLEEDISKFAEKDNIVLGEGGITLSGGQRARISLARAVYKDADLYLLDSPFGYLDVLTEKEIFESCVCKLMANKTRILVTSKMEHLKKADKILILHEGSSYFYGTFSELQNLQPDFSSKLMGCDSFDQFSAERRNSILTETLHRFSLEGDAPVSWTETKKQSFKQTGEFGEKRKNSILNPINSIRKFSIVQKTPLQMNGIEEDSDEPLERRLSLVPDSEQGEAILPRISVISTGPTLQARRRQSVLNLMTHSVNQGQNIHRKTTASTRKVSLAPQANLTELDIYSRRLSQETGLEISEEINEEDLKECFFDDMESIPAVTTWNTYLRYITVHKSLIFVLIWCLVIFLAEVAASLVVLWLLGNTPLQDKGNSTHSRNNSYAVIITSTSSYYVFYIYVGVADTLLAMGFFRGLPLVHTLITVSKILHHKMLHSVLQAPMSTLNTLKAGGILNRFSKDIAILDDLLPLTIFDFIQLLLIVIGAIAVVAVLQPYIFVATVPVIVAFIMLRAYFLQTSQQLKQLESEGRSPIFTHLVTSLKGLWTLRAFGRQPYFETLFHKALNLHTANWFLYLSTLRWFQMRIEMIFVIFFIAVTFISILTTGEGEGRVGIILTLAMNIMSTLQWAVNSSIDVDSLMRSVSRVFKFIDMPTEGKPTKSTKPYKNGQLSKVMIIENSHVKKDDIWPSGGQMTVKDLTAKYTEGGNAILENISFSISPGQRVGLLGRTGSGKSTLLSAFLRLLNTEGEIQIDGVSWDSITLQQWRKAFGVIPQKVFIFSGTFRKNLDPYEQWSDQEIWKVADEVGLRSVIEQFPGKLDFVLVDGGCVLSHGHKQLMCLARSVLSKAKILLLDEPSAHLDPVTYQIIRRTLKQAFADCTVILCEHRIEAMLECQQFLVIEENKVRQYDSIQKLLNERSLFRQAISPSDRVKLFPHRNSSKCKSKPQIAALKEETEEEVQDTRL
- run description: Membrane Potential Dye, Enteroid Assay B
- Assay type: cell-based
- test settings: Table 9; read-out: Ent. B EC50
- Method: Base medium (ADF+++) consisted of Advanced DMEM/Ham's F12, 2 mM Glutamax, 10 mM HEPES, […] penicillin/streptomycin. Bath 1 Buffer consisted of 1 mM MgCl2, 160 mM NaCl, 4.5 mM KCl, 10 mM HEPES, 10 mM Glucose, 2 mM CaCl2). […] Briefly, cells were washed 5 times in Bath 1 Buffer. […] Chloride transport was initiated by addition of Chloride Free Dye Stimulation Solution and the fluorescence signal was read for 15 min.
readout name: EC50

{"molecule": "Cc1cccc(C)c1-c1cc2nc(n1)NS(=O)(=O)c1cccc(c1)C(=O)N[C@@H]1CN(C3CC4(CCCC4)C3)C[C@H]1O2", "measurement target": "UniProt:P13569", "test value": "< 1000 nM"}
{"molecule": "Cc1cccc(C)c1-c1cc2nc(n1)NS(=O)(=O)c1cccc(c1)C(=O)NC(C)(CC(C)C)CO2 (stereo not shown)", "measurement target": "UniProt:P13569", "test value": "< 1000 nM"}
{"molecule": "Cc1cccc2c1-c1cc3nc(n1)NS(=O)(=O)c1cccc(c1)C(=O)N[C@H](CCCCCCCC2)CO3", "measurement target": "UniProt:P13569", "test value": "< 1000 nM"}
{"molecule": "Cc1cccc(/C=C/C(C)C)c1-c1cc2nc(n1)NS(=O)(=O)c1cccc(c1)C(=O)N[C@H](CC(C)C)CO2", "measurement target": "UniProt:P13569", "test value": "< 1000 nM"}
{"molecule": "Cc1cccc(C)c1-c1cc2nc(n1)NS(=O)(=O)c1cccc(c1)C(=O)N[C@@H]1CN(C(C)C)C[C@H]1O2", "measurement target": "UniProt:P13569", "test value": "3000 to 30000 nM"}
{"molecule": "Cc1cccc(C)c1-c1cc2nc(n1)NS(=O)(=O)c1cccc(c1)C(=O)N[C@@H]1CN(Cc3ccc(C(F)(F)F)cc3)C[C@H]1O2", "measurement target": "UniProt:P13569", "test value": "< 1000 nM"}
{"molecule": "C=CCCCCCC[C@@H]1COc2cc(-c3ccccc3C=C)nc(n2)NS(=O)(=O)c2cccc(c2)C(=O)N1", "measurement target": "UniProt:P13569", "test value": "< 1000 nM"}
{"molecule": "Cc1cccc(C)c1-c1cc2nc(n1)NS(=O)(=O)c1cccc(c1)C(=O)N[C@@H]1CN(C(=O)OC(C)(C)C)C[C@H]1O2", "measurement target": "UniProt:P13569", "test value": "1000 to 3000 nM"}
{"molecule": "O=C1N[C@@H]2CCCCCCc3ccccc3-c3cc(nc(n3)NS(=O)(=O)c3cccc1c3)OC2", "measurement target": "UniProt:P13569", "test value": "< 1000 nM"}
{"molecule": "Cc1cccc(C)c1-c1cc2nc(n1)NS(=O)(=O)c1cccc(c1)C(=O)NC[C@H](c1ccc(/C=C/C(C)(C)C)cc1)O2 (stereo in doubt) [Compound 150]", "measurement target": "UniProt:P13569", "test value": "< 1000 nM"}

Return reported EC50. Input molecule: Cc1cccc(C)c1-c1cc2nc(n1)NS(=O)(=O)c1cccc(c1)C(=O)N[C@@H](C(CC(C)C)c1ccccc1)CO2 (stereo in doubt) [Compound 183]
< 1000 nM

Return reported EC50. Input molecule: `Cc1cccc(CCC2CC2)c1-c1cc2nc(n1)NS(=O)(=O)c1cccc(c1)C(=O)N[C@H](CC(C)C)CO2`
< 1000 nM

Return reported EC50. Input molecule: Cc1cccc(C)c1-c1cc2nc(n1)NS(=O)(=O)c1cccc(c1)C(=O)NC[C@@H](CC(C)C)CO2 (stereo in doubt)
< 1000 nM
